The reported numbers originate from patent US20230322924A1.

Target: T1, Human CD33 full length (human, UniProt P20138 18-364)
T1 construct: also called huCD33
T1 sequence (P20138 18-364 limits assumed): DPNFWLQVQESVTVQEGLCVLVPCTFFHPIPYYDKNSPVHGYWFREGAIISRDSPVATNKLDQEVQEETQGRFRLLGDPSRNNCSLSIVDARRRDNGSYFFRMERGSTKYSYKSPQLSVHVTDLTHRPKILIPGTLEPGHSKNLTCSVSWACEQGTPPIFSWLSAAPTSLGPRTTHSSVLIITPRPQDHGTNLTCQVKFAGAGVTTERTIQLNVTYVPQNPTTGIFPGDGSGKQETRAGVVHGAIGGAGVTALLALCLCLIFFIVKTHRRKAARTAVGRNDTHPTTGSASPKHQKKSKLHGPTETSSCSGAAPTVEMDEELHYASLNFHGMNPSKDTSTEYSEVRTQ
Test: flow cytometry on HEK293F cells expressing human CD33
Assay endpoint: MFI at 6 nM (MFI)
Quick note: give the figure in MFI, leave out the unit.

Reference set, count: 2
C33B914 (antibody, V domains shown, OMNIMouse-derived anti-CD33 mAb; same V regions as C33B906; also called C33H254/C33L120; C33F552) VH: QVQLVESGGGVVQPGRSLRLSCAASGFTFSYYGMHWVRQAPDKGLEWVAVIWFDGNNKYYADSVKGRFTISRDNSKNTLYLQMNSLRAEDTAVYYCARDRELLFDYWGQGTLVTVSS VL: SYELTQPPSVSVSPGQTASITCSGDELGDMYACWYQQKPGQSPLVVIYQDSKRPSGIPERFSGSNSGNTATLTISGTQAMDEAAYYCQTWDTRIAVFGGGTNLTVL : 315000
C33B916 (antibody, V domains shown, OMNIMouse-derived anti-CD33 mAb; same V regions as C33B908; also called C33H256/C33L122; C33F554) VH: QVQLVESGGGVVQPGRSLRLSCATSGFTFSNYGMHWVRQAPGKGLEWVAVIWYVGSHKYYADSVKGRFTISRDNSKNTLYLQMNSLRAEDTAVYYCARDGSLCFDYWGQGTLVTVSS VL: SYELTQPPSVSVSPGQTANISCSGVTLGYNYAYWYQQKPGQSPILVISQDTQRPSGIPERFSGSNSGNTATLTISGTQAMDEAAYYCQAWDITTVLFGGGTKLTVL : 404000

Turning now to a further record.
Exercise: Look up MFI at 6 nM of C33B909 (antibody, V domains shown, OMNIMouse-derived anti-CD33 mAb; same V regions as C33B901; The OMNIMouse mAbs were cloned into both IgG1 and IgG4 PAA; also called C33H249/C33L115) VH: EVQLVESGGGLVQPGRSLRLSCVASGFTFDDYAIHWVRQAPGKGLEWVSGLSWNGGNIGYADSVKGRFTISRDNAKNSLYLQMNSLKTEDTAFYYCTKDTPYGDYFDYWGQGTLVTVSS VL: DIQMTQSPSSVWASVGDRVTITCRASQGISSWLAWYQQQPGKAPNLLIYRSSSLQSGVPSRFSGSGSGTDFTLTISSLQPEDFATYYCQQDNSFPYTFGQGTKLEIK and report it.
Key: 170
